Tested on: SNB-19 CNS
assay-details: NCI tumour cell line growth inhibition, 48 h
TGI overview

As a guide, the following entries are already answered.
C/C(N=NC(=S)N1CCCCCC1)=C1\C=CC=CN1O	> 100 µM
CCn1c(-c2nonc2N)nc2c(C#CC(C)(C)O)ncc(OC[C@@H]3CCCN3)c21	> 25 µM
Cc1cccc2c(N)c3cccc(C(=O)NCC[N+](C)(C)[O-])c3nc12	> 100 µM
C[N+]1(CCCCN2c3ccccc3Sc3cc(N=[N+]=[N-])ccc32)CCN(C(=O)CCNC(=O)Cc2ccc(C(=O)c3ccccc3)cc2)CC1	66.7 µM
CCOC(=O)/N=c1\ssc(Cl)c1Cl	56.9 µM
COc1ccc(-c2conc2-c2ccccc2)cc1	> 100 µM
O=C(NOC(=O)c1ccc([N+](=O)[O-])cc1)c1ccc(Cl)cc1	> 100 µM
COc1ccc2[nH]c3c(C)c4cc[n+](COC(=O)c5ccccc5)cc4c(C)c3c2c1	6.85 µM

Ask | Form field: reported TGI of `C=C(C[N+](C)(C)C)N/N=C/c1oc(-c2ccc(OC)c(OC)c2)c(-c2ccc(OC)c(OC)c2)c1[N+](=O)[O-]`
Reply | > 100 µM

Ask | Quick one: TGI for `CCOC(=O)OC1(c2ccccc2)CCN(C)CC1` ?
Reply | > 100 µM

Taken from PubChem BioAssay (NCI).
